This collection of values is drawn from patent US20220073608A1.

Target: T1, monkey SEMA4D, full length, on CHO-K1 cells (CHO-K1 cSEMA4D) (monkey)
T1 construct: whole, on cells; also called monkey SEMA4D recombinant cells
Assay: FACS, CHO-K1 cSEMA4D cells; Ab 0.000853 nM
Description: After the cells were counted, they were diluted with PBS to 2×10⁶ cells per milliliter. After washing, 100 μL of diluted and purified leading antibodies was added to each well and the plate was incubated for 1 hour on ice. […] Cells were washed 2 times by centrifugation with FACS buffer. The cells were suspended with 200 μL of FACS buffer, FACS (FACS Verse, purchased from BD) was used to detect and analyze the results.
Reported MFI values are given for each entry in this list.
Enter a number only.

Example entries begin here.
1. 38H2E3 (antibody, V domains shown, Mouse monoclonal antibody purified from hybridoma supernatant on protein A) VH: EFQLQQSGPEVVKPGASVKISCKASGYSFTDYNMNWMKQSKGKSLEWIGVISPDYGTTTYNQNFKDKATLTVDQSSSTAYMQLNSLTSEDSAVYYCAKDMYYVYAYYTMDYWGHGTSVTVSS VL: DVVMTQTPLSLPVSLGDQASISCRSSQSLVHSNGHTYLHWYLQRPGQSPTLLIYKVSNRFSGVPDRVSGSGSGTDFTLKISRVEAEDLGVYFCSQGTHVPRTFGGGTKLEIK | 26.1
2. 42B7G2 (antibody, V domains shown, Mouse monoclonal antibody purified from hybridoma supernatant on protein A) VH: QVQLQQSGAELARPGASVKLSCKASGYTFTDYGISWVKQRTGQGLEWIGEIYLRNDNSYYNEKFKGKATLTADKSSNTAYMELRSLTSEDSAVYFCARWGDHGNNYEDAMDYWGQGTSVTVSS VL: DIVLTQSPASLAMSLGKRATISCRASESVSIIGSNLIHWYQQKPGQPPKLLIYHASNLETGVPARFSGSGSRTDFTLTIDPVEEDDVAIYYCLQSRKVPYTFGGGTKLEIK | 54.5

Next item in the queue.
Entry 37C4F7 (antibody, V domains shown, Mouse monoclonal antibody purified from hybridoma supernatant on protein A) VH: EFQLQQSGPEVVKPGASVKISCKASGYSFTDYNMNWMKQSKGKSLEWIGVINPNYGTTTYNQNFKGKATLTVDQSSSTAYMQLNSLTSEDSAVYYCARDMYYVYAYYTMDYWGQGTSVTVSS VL: DVVMTQTPLSLPVSLGDQASISCRSSQSLVHSNGHTYLHWYLQRPGQSPTLLIYKVSNRFSGVPDRFSGSGSGTDFTLKISRVEAEDLGVYFCSQGTHVPWTFGGGTKLEIK needs its MFI filled in; supply it.
29
